Exercise: for every item that follows, state its recorded variant/HC_D62R.
TARGET OR SYSTEM: T1, human tissue factor pathway inhibitor (TFPI) (human, UniProt P10646 29-304, limits assumed)
T1 construct: bought; also called hTFPI; human TFPI
T1 sequence (looked up): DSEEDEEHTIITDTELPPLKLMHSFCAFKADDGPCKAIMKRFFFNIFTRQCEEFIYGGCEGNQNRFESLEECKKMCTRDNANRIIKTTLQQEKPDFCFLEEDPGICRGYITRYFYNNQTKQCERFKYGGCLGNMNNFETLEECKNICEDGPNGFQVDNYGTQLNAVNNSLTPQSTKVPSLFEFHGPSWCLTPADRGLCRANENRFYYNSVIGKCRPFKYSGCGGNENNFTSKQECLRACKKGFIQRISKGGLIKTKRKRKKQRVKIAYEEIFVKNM
ASSAY NOTES: competitive ELISA
Numbers only, in ratio.

// variant/HC_D62R value for 4B7 HC N32D+D62R+H107M+Y112D/LC D33R+N35I+D97T (Fab, V domains shown) VH: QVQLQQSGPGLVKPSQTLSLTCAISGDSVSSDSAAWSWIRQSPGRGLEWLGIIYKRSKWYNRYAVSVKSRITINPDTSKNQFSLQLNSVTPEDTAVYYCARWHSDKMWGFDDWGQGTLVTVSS VL: DIVMTQSPLSLPVTPGEPASISCRSSQSLVFSRGITYLNWYLQKPGQSPQLLIYKGSNRASGVPDRFSGSGSGTDFTLKISRVEAEDVGVYYCQQYTSYPLTFGQGTKVEIKR : 29.1

We now examine a further binder.
// 4B7 HC D62R+H107M+Y112D/LC S32R+D33F+N35I (Fab, V domains shown) VH: QVQLQQSGPGLVKPSQTLSLTCAISGDSVSSNSAAWSWIRQSPGRGLEWLGIIYKRSKWYNRYAVSVKSRITINPDTSKNQFSLQLNSVTPEDTAVYYCARWHSDKMWGFDDWGQGTLVTVSS VL: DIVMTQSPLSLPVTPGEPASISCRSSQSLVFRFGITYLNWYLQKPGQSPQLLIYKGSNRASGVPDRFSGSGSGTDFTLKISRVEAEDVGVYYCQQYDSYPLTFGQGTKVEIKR : variant/HC_D62R value = 24.1
